Biological target: Insulin-like growth factor 1 receptor (Homo sapiens, UniProt P08069)
Sequence (P08069 31-736 limits assumed): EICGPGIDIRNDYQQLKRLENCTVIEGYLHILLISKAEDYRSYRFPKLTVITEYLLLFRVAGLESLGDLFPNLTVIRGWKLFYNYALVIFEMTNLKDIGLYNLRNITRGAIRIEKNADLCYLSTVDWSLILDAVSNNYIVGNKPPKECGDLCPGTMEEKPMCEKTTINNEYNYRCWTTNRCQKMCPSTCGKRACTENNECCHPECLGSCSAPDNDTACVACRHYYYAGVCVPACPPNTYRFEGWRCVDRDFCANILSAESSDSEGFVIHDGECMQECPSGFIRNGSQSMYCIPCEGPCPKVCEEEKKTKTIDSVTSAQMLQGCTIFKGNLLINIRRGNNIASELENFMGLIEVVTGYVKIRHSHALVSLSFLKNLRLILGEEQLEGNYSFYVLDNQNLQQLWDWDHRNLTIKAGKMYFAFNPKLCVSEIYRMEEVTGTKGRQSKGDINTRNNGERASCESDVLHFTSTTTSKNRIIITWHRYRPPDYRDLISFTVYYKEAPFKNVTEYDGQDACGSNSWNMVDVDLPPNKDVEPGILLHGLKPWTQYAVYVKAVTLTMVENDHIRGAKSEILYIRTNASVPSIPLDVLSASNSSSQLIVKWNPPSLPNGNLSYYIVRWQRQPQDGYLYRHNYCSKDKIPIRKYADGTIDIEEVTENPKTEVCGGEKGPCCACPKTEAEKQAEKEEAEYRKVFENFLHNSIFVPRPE
Sequence (P08069 741-1367 limits assumed): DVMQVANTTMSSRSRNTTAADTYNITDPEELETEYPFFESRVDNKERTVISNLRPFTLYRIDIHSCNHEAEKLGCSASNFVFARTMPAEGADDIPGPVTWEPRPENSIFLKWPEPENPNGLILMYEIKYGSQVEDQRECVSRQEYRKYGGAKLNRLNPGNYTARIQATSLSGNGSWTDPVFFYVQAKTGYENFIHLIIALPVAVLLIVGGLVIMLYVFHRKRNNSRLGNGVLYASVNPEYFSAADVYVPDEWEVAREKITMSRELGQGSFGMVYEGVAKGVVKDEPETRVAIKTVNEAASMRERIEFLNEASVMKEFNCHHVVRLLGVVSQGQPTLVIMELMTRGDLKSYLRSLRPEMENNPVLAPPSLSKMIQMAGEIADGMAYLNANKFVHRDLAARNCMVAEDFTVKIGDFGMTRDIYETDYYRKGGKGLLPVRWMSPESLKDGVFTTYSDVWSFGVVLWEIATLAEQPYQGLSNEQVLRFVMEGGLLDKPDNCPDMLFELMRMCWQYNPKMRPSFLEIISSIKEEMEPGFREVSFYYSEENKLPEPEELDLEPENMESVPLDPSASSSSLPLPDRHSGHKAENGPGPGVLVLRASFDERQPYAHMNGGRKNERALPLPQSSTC
Assay: Inhibition of IGF1R expressed in SAL cells
Assay type: cell-based
Assign pIC50 to each entry below.
Value format note: pIC50 is -log10 of concentration (mol/L); just state the number.

stdin: # pIC50 lookup, item "Cc1ccn(CCNc2cc[nH]c(=O)c2-c2nc3c(C)cc(N4CCOCC4)cc3[nH]2)n1"
stdout: 6.37

stdin: # pIC50 lookup, item "CCn1cnc(CCNc2cc[nH]c(=O)c2-c2nc3c(C)cc(N4CCOCC4)cc3[nH]2)c1Br"
stdout: 6.55

stdin: # pIC50 lookup, item "Cc1cc(N2CCOCC2)cc2[nH]c(-c3c(NCCn4nccc4C)cc[nH]c3=O)nc12"
stdout: 6.27

* * *

System: Mus musculus
Assay: AUC (0 to 4h) in mouse at 20 mg/kg, po
Assay type: ADME, organism-based, Plasma
Parameters: time < 4 hr, dose 20 mg/kg, route oral
Details: in vivo
Classify: label 1 when AUC is strictly less than 5 µM·h; label 0 when AUC is not.

stdin: Input "CCn1cnc(CCNc2cc[nH]c(=O)c2-c2nc3c(C)cc(N4CCOCC4)cc3[nH]2)c1Cl" ; condition: AUC strictly below 5 µM·h. Does it hold?
stdout: label 0

stdin: Input "Cc1cc(N2CCOCC2)cc2[nH]c(-c3c(NCCc4cn(C)cn4)cc[nH]c3=O)nc12" ; condition: AUC strictly below 5 µM·h. Does it hold?
stdout: label 1

stdin: Input "Cc1cc(N2CCOCC2)cc2[nH]c(-c3c(NCCn4cccn4)cc[nH]c3=O)nc12" ; condition: AUC strictly below 5 µM·h. Does it hold?
stdout: label 1

stdin: Input "Cc1cc(N2CCOCC2)cc2[nH]c(-c3c(NCCn4nccc4C)cc[nH]c3=O)nc12" ; condition: AUC strictly below 5 µM·h. Does it hold?
stdout: label 0

* * *

Test system: Mus musculus
Experiment: AUC (0 to 4h) in mouse at 20 mg/kg, po
Type: ADME, organism-based, Plasma
Parameters: time < 4 hr, dose 20 mg/kg, route oral
Conditions: in vivo
Classify: Yes when AUC is strictly less than 8 µM·h; No when AUC is not.

stdin: Input "Cc1cnn(CCNc2cc[nH]c(=O)c2-c2nc3c(C)cc(N4CCOCC4)cc3[nH]2)c1" ; condition: AUC strictly below 8 µM·h. Does it hold?
stdout: Yes

stdin: Input "Cc1cc(N2CCOCC2)cc2[nH]c(-c3c(NCCn4cc(Br)c(CO)n4)cc[nH]c3=O)nc12" ; condition: AUC strictly below 8 µM·h. Does it hold?
stdout: Yes

stdin: Input "Cc1cc(N2CCOCC2)cc2[nH]c(-c3c(NC[C@@H](O)c4cccc(Cl)c4)cc[nH]c3=O)nc12" ; condition: AUC strictly below 8 µM·h. Does it hold?
stdout: No

stdin: Input "Cc1cc(N2CCOCC2)cc2[nH]c(-c3c(NCCc4nc(C)n(C)c4Cl)cc[nH]c3=O)nc12" ; condition: AUC strictly below 8 µM·h. Does it hold?
stdout: No

* * *

Test system: Mus musculus
Assay: AUC (0 to 4h) in mouse at 20 mg/kg, po
Format: ADME, organism-based, Plasma
Parameters: time < 4 hr, dose 20 mg/kg, route oral
Conditions: in vivo
# cutoff 30 µM·h applies to AUC; >= gives yes (1), < gives no (0)

stdin: # check: AUC of "Cc1ccn(CCNc2cc[nH]c(=O)c2-c2nc3c(C)cc(N4CCOCC4)cc3[nH]2)n1" is greater than or equal to 30 µM·h
stdout: no (0)

stdin: # check: AUC of "Cc1nn(CCNc2cc[nH]c(=O)c2-c2nc3c(C)cc(N4CCOCC4)cc3[nH]2)cc1Br" is greater than or equal to 30 µM·h
stdout: yes (1)

stdin: # check: AUC of "Cc1cc(N2CCOCC2)cc2[nH]c(-c3c(NCCn4cc(Cl)cn4)cc[nH]c3=O)nc12" is greater than or equal to 30 µM·h
stdout: yes (1)

stdin: # check: AUC of "Cc1nn(CCNc2cc[nH]c(=O)c2-c2nc3c(C)cc(N4CCOCC4)cc3[nH]2)cc1Cl" is greater than or equal to 30 µM·h
stdout: yes (1)

stdin: # check: AUC of "COC(=O)c1cnn(CCNc2cc[nH]c(=O)c2-c2nc3c(C)cc(N4CCOCC4)cc3[nH]2)c1" is greater than or equal to 30 µM·h
stdout: no (0)

stdin: # check: AUC of "Cc1cc(N2CCOCC2)cc2[nH]c(-c3c(NCCn4ncc(Br)c4C)cc[nH]c3=O)nc12" is greater than or equal to 30 µM·h
stdout: yes (1)

stdin: # check: AUC of "Cc1cc(N2CCOCC2)cc2[nH]c(-c3c(NCCc4nc(Cl)n(C)c4Cl)cc[nH]c3=O)nc12" is greater than or equal to 30 µM·h
stdout: yes (1)
